Data origin: ChEMBL document CHEMBL3870336

assay: Lipophilicity, logD of compound at pH 7.4; type: physicochemical; conditions: buffer
REPORTED ENDPOINT: logD

{"STRUCTURE": "O=C(O)/C=C/c1ccc2cccc(N3CCN(CCc4ccc(OCCCN5CCCCCC5)cc4)CC3)c2n1", "logD": 0.34}
{"STRUCTURE": "O=C(O)CCc1ccc2cc(Cc3ccccc3)cc(N3CCN(CCc4ccc(OCCCN5CCCCCC5)cc4)CC3)c2n1", "logD": 1.9}
{"STRUCTURE": "O=C(O)c1cnc2c(N3CCN(CCc4ccc(OCCCN5CCCCCC5)cc4)CC3)cccc2c1", "logD": -0.78}
{"STRUCTURE": "O=C(O)CCc1cnc2c(N3CCN(CCc4ccc(OCCCN5CCCCCC5)cc4)CC3)cccc2c1", "logD": -0.63}
{"STRUCTURE": "CCCCc1cc(N2CCN(CCc3ccc(OCCCN4CCCCCC4)cc3)CC2)c2nc(CCC(=O)O)ccc2c1", "logD": 2.3}
{"STRUCTURE": "O=C(O)c1ccc2cccnc2c1N1CCN(CCc2ccc(OCCCN3CCCCCC3)cc2)CC1", "logD": -0.12}

P: O=C(O)CCc1ccc2cccc(N3CCN(CCc4ccc(OCCCN5CCCCCC5)cc4)CC3)c2n1
Q: c1cnc2c(N3CCN(CCCCc4ccc(OCCCN5CCCCCC5)cc4)CC3)cccc2c1
Enquiry: When the recorded logD values are compared, which is smaller: that of P or that of Q ? Please indicate the selected item by its label.
Return: P
(P: 0.18, Q: 2.2)

###

molecular target: Histamine H3 receptor (Homo sapiens, UniProt Q9Y5N1); assay: Antagonist activity at human Histamine H3 receptor expressed in CHO cell membranes assessed as inhibition of histamine-induced [35S]GTPgammaS binding after 2 to 6 hrs by scintillation proximity assay
Sequence (Q9Y5N1 whole entry): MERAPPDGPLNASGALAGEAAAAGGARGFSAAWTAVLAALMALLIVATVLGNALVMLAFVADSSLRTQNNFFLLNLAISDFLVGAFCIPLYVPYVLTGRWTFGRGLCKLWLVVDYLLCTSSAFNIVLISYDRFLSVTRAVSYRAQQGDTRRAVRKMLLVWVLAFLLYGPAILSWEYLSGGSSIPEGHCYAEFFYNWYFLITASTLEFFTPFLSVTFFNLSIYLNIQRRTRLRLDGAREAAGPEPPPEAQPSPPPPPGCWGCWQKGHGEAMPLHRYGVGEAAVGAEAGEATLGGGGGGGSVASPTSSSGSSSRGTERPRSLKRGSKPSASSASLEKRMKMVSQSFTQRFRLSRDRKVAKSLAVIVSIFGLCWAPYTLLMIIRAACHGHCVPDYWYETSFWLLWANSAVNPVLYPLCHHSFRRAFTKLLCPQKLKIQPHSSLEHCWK
pKi: −log10 of the molar value.
REPORTED ENDPOINT: pKi

Known results for compounds:
{"STRUCTURE": "O=C(O)c1cc(N2CCN(CCc3ccc(OCCCN4CCCCCC4)cc3)CC2)c2ncccc2c1", "TARGET ENTITY": "Histamine H3 receptor (Homo sapiens, UniProt Q9Y5N1)", "pKi": 8.70}
{"STRUCTURE": "O=C(O)CCc1ccc2cccc(N3CCN(CCc4ccc(OCCCN5CCCCCC5)cc4)CC3)c2n1", "TARGET ENTITY": "Histamine H3 receptor (Homo sapiens, UniProt Q9Y5N1)", "pKi": 8.80}

A: O=C(O)/C=C/c1ccc2cccc(N3CCN(CCc4ccc(OCCCN5CCCCCC5)cc4)CC3)c2n1
B: O=C(O)c1ccc2cccc(N3CCN(CCc4ccc(OCCCN5CCCCCC5)cc4)CC3)c2n1
Enquiry: Sort A and B by pKi descending and give the first. Your choice should be expressed through its label.
Return: B

###

assay: Lipophilicity, logD of compound at pH 7.4; format: physicochemical; conditions: buffer
REPORTED ENDPOINT: logD

1: O=C(O)c1cc(N2CCN(CCc3ccc(OCCCN4CCCCCC4)cc3)CC2)c2ncccc2c1
2: c1cnc2c(N3CCN(CCc4ccc(OCCCN5CCCCCC5)cc4)CC3)cccc2c1
Enquiry: In terms of reported logD, does 1 or 2 have the smaller number? Record your answer as the label of the chosen record.
Return: 1

a: O=C(O)c1ccnc2c(N3CCN(CCc4ccc(OCCCN5CCCCCC5)cc4)CC3)cccc12
b: O=C(O)c1ccc2cccc(N3CCN(CCc4ccc(OCCCN5CCCCCC5)cc4)CC3)c2n1
Enquiry: # query: argmin of logD over a and b Pick one; state its label.
Return: b
